Recorded protein stability index values for a group of variants are listed next.
B1: TOR1AIP2 (parent)
chain: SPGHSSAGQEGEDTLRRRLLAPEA

# Variants of: B1
# test_description: protein stability index of a GFP-peptide fusion (GPS, HEK-293T) (PSI 1-6); higher = more stable;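 note: lentivirally expressed fusions sorted by FACS into six bins by GFP to DsRed ratio, PSI derived from sequencing read proportions per bin multiplied by bin number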
# run_parameters: c terminus: a fixed tail appended
Give the figure only, with no unit attached.

Past entries and their recorded results:
| mutation_string | protein stability index |
| --- | --- |
| L19C | 4.99 |
| A21K | 4.89 |

Would you kindly look at the next entry?
**Query** Look up protein stability index for this variant: L15V
**Result** 4.93
